Tested on: RARg:RXRa (NR concentration 270 nM, RXRa partner concentration 90 nM)
Procedure text: PBM binding z-score (relative to random genomic background probes); higher = stronger binding; sequences stand for … in GC…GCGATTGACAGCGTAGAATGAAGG
Measurement name: PBM binding z-score

INSERT INTO assay_data (polymer_sequence, measurement_name, data_value) VALUES
  ('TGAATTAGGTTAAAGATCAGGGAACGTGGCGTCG', 'PBM binding z-score', 0.954),
  ('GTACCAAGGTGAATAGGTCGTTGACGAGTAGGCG', 'PBM binding z-score', 2.91),
  ('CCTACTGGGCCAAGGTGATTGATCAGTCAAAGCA', 'PBM binding z-score', -0.199),
  ('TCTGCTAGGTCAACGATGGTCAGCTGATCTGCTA', 'PBM binding z-score', 4),
  ('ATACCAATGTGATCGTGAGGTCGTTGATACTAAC', 'PBM binding z-score', 0.681),
  ('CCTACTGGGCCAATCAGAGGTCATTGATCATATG', 'PBM binding z-score', 4.56),
  ('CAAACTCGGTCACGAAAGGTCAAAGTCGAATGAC', 'PBM binding z-score', 7.03),
  ('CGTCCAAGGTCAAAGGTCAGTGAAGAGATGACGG', 'PBM binding z-score', 8.7),
  ('GATATTAGTTGAAAGGGCAACCGAATGATTCTCG', 'PBM binding z-score', 1.73),
  ('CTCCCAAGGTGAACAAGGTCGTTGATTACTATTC', 'PBM binding z-score', 1.68),
  ('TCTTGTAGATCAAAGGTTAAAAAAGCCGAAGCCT', 'PBM binding z-score', 1.79),
  ('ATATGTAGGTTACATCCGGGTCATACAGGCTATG', 'PBM binding z-score', 3.85),
  ('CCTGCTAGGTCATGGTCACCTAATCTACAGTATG', 'PBM binding z-score', 4.1),
  ('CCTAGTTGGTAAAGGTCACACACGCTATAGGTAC', 'PBM binding z-score', 6.22),
  ('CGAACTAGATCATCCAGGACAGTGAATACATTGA', 'PBM binding z-score', 0.0804),
  ('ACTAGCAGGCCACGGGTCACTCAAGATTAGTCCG', 'PBM binding z-score', 2.22),
  ('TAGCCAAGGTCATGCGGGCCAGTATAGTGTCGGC', 'PBM binding z-score', 5.81),
  ('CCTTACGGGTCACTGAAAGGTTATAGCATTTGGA', 'PBM binding z-score', 6.85),
  ('TCGAGTAGGTTACCAATGGGGCATTCAGCTTTCT', 'PBM binding z-score', 1.2),
  ('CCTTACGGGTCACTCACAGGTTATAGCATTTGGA', 'PBM binding z-score', 5.9),
  ('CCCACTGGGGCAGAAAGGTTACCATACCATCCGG', 'PBM binding z-score', 1.52),
  ('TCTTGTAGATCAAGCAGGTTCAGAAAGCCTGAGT', 'PBM binding z-score', -0.213),
  ('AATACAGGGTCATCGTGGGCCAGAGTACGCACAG', 'PBM binding z-score', 5.59),
  ('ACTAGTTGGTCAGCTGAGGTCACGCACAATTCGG', 'PBM binding z-score', 4.85),
  ('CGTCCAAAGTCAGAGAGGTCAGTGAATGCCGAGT', 'PBM binding z-score', 2.98),
  ('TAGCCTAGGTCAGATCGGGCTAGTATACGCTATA', 'PBM binding z-score', 2.48),
  ('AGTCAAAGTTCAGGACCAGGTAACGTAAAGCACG', 'PBM binding z-score', 4.41),
  ('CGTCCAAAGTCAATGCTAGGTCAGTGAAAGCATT', 'PBM binding z-score', 2.4),
  ('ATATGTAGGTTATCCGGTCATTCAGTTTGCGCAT', 'PBM binding z-score', 2.11),
  ('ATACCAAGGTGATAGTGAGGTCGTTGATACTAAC', 'PBM binding z-score', 2.12),
  ('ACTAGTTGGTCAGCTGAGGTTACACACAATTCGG', 'PBM binding z-score', 1.46),
  ('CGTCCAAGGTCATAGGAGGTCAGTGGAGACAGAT', 'PBM binding z-score', 6.84),
  ('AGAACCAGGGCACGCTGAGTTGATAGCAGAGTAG', 'PBM binding z-score', 0.797),
  ('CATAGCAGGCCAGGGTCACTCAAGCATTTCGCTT', 'PBM binding z-score', 3.13),
  ('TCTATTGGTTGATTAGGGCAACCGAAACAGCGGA', 'PBM binding z-score', 0.341),
  ('AGAATGAGGTTATACGTAGATCCGGGAAGAAAGT', 'PBM binding z-score', 1.39),
  ('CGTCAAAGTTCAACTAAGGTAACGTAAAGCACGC', 'PBM binding z-score', 5.92),
  ('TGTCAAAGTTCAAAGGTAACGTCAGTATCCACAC', 'PBM binding z-score', 6.26),
  ('TCTCGGAGGACACGCAGGTCAGAGCTTTCCAGAG', 'PBM binding z-score', 2.47),
  ('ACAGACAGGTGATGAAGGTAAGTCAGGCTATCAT', 'PBM binding z-score', 0.153),
  ('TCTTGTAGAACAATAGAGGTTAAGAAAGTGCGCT', 'PBM binding z-score', 0.879),
  ('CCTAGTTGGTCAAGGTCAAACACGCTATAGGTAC', 'PBM binding z-score', 4.69),
  ('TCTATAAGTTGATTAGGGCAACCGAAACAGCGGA', 'PBM binding z-score', 0.61),
  ('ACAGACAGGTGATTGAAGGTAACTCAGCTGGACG', 'PBM binding z-score', 0.204);
